Measured pIC50 values are reported for all entries that follow.
Target: Fatty-acid amide hydrolase 1 (Rattus norvegicus, UniProt P97612)
Sequence (P97612 whole entry): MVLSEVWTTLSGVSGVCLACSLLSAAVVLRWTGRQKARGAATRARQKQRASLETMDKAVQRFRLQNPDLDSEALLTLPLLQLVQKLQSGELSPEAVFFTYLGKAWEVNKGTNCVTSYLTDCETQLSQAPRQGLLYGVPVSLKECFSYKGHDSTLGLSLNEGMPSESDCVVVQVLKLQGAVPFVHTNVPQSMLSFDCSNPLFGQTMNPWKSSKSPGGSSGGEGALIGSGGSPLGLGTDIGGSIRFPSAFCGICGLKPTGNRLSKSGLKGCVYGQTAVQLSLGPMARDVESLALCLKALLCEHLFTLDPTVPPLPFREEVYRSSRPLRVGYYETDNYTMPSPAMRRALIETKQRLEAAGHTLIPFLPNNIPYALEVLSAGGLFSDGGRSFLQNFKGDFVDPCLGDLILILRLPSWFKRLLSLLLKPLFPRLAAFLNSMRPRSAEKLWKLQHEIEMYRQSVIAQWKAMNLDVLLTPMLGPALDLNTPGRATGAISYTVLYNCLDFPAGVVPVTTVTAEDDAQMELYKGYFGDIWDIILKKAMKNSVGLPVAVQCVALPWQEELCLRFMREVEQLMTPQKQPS
Assay: Fatty acid amide hydrolase inhibitory activity in rat brain membrane using [3H]anandamide as a substrate
Assay type: cell membranes
// pIC50 here means minus log10 of the molar concentration (mol/L)

> print(dat)
                       item.smiles  value
1  CCCCNC(=O)Oc1ccc(OCc2ccccc2)cc1   6.41
2           CNC(=O)Oc1ccc2ccccc2c1   4.74
3    O=C(NC1CCCCC1)Sc1ccc2ccccc2c1   4.81

Now for the compound whose pIC50 we want.
GET /values?readout=pIC50&item= O=C(NC1CCCCC1)Oc1ccc2cccc(Br)c2c1
6.76

----------
Target: Fatty-acid amide hydrolase 1 (Rattus norvegicus)
Experiment: Fatty acid amide hydrolase inhibitory activity in rat brain membrane using [3H]anandamide as a substrate
Type: cell membranes
The label MET is reserved for IC50 strictly under 0.8 µM; NOT MET covers values equal to or above it.

Illustrative cases are given below, each with its answer.
> print(dat)
                                 compound  assigned.category
1          CCCCCc1cccc(OC(=O)NC2CCCCC2)c1                MET
2           O=C(Nc1ccc2ccccc2c1)NC1CCCCC1            NOT MET
3  O=C(NC1CCCCC1)Oc1ccc(/C=C\c2ccccc2)cc1                MET
4       CCc1ccc2cc(OC(=O)NC3CCCCC3)ccc2c1            NOT MET
5       CNC(=O)Oc1cccc2ccccc12 [CARBARIL]            NOT MET
6      O=C(Nc1cccc(-c2ccccc2)c1)OC1CCCCC1            NOT MET

Please let me know if S=C(NC1CCCCC1)Sc1ccc2ccccc2c1 shows IC50 below 0.8 µM.
NOT MET

I wonder whether S=C(Nc1ccc2ccccc2c1)NC1CCCCC1 has IC50 below 0.8 µM. Can you tell?
NOT MET

For this compound, is IC50 lower than 0.8 µM? CCCCNC(=O)Oc1ccc(F)cc1
NOT MET

----------
Target: UniProt:P97612
Experiment: Inhibition of [3H]anandamide binding to fatty acid amide hydrolase of rat brain membrane
Parameter class (string): assigned from measured IC50. Ranges: one = under 300 nM, two = from 300 nM up to 3000 nM, three = 3000 nM and over

> print(dat)
               item.smiles   system.tested  assigned.category
1  O=C(NC1CCCCC1)Oc1ccccc1  UniProt:P97612              three

Here is the next item to consider.
Using the reported IC50, which band applies to O=C(NC1CCCCC1)Oc1ccc(/C=C\c2ccccc2)cc1 ?
one

----------
Listed below: pIC50 values for each entry.
Biological target: Fatty-acid amide hydrolase 1 (Rattus norvegicus, UniProt P97612)
Assay: Fatty acid amide hydrolase inhibitory activity in rat brain membrane using [3H]anandamide as a substrate
Assay type: cell membranes
pIC50: −log10 of the molar value.

Past entries and their recorded results:
> print(dat)
                     item.smiles   value
1           CCNC(=O)Oc1ccc(C)cc1  < 4.52
2  S=C(NC1CCCCC1)Oc1ccc2ccccc2c1  < 4.52

What value of pIC50 has been recorded for this entry: O=C(Cc1ccc2ccccc2c1)NC1CCCCC1
< 4.52

----------
A collection of compounds and their measured IC50
Biological target: Fatty-acid amide hydrolase 1 (Rattus norvegicus)
Test: Fatty acid amide hydrolase inhibitory activity in rat brain membrane using [3H]anandamide as a substrate
Type: cell membranes
Provide the reading as a plain figure in µM.

# lookup: IC50 of Cc1cccc(OC(=O)NC2CCCCC2)c1
0.808

Return reported IC50; argument: O=C(NC1CCCCC1)Oc1ccccc1
3.78

What does the data say about its IC50? Entry: CCCCCCOC(=O)NC1CCCCC1
3.76

----------
Molecular target: Fatty-acid amide hydrolase 1 (Rattus norvegicus, UniProt P97612)
Test: Inhibition of [3H]anandamide binding to fatty acid amide hydrolase of rat brain membrane
Please use T for IC50 under 2000 nM and F for everything else, ties included.

> print(dat)
                         item.smiles  assigned.category
1         Cc1ccc(OC(=O)NC2CCCCC2)cc1                  F
2         Cc1cccc(OC(=O)NC2CCCCC2)c1                  T
3      O=C(NC1CCCCC1)Oc1ccc2ccccc2c1                  T
4     CCCCCc1cccc(OC(=O)NC2CCCCC2)c1                  T
5  CCc1ccc2cc(OC(=O)NC3CCCCC3)ccc2c1                  F

Determine if CCCCNC(=O)Oc1ccc(F)cc1 shows IC50 strictly lower than 2000 nM.
F

I wonder whether O=C(NC1CCCCC1)Oc1ccc2cccc(Br)c2c1 has IC50 below 2000 nM. Can you tell?
T

IC50 under 2000 nM? Item: CCCCNC(=O)Oc1ccc2cc(Br)ccc2c1
T

Is IC50 of CCCCNC(=O)Oc1ccc(OCc2ccccc2)cc1 strictly below 2000 nM?
T

Hi there! Is IC50 for O=C(NC1CCCCC1)Oc1ccc(-c2ccccc2)cc1 below 2000 nM, do you know?
F

Is it true that IC50 reported for O=C(NC1CCCCC1)Oc1ccc(/C=C/c2ccccc2)cc1 is less than 2000 nM?
F

Is the reported IC50 for O=C(NC1CCCCC1)Oc1cccc(-c2ccccc2)c1 strictly below 2000 nM?
T
